Cited source: ChEMBL document CHEMBL4177625

# TEST SYSTEM: Beta-2 adrenergic receptor (Rattus norvegicus, UniProt P10608)
# Sequence (P10608 whole entry): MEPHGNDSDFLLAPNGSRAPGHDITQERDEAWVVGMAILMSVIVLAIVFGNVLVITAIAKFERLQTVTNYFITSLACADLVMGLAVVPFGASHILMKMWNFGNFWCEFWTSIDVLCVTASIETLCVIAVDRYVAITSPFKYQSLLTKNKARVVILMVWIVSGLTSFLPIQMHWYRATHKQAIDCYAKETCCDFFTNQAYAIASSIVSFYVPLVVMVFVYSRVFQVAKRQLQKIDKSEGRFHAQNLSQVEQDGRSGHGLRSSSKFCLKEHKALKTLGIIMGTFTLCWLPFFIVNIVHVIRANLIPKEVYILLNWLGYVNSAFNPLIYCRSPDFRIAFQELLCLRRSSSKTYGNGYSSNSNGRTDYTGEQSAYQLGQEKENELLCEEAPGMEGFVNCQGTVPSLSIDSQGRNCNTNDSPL
# EXPERIMENT: Agonist activity at beta2 adrenergic receptor in rat L6 cell lysate assessed as increase in intracellular 2-deoxyglucose uptake preincubated for 4 hrs followed by 2-deoxyglucose addition measured after 20 mins by fluorescence-based enzymatic assay relative to control
# Assay type: functional
PARAMETER: pEC50
Quick note: pEC50 values are minus log10 of concentrations in mol/L.

COMPOUND	PARAMETER	OBSERVED
OC[C@H]1O[C@@H](Oc2ccc(C[C@H]3NCCc4cc(O)c(O)cc43)cc2)[C@H](O)[C@@H](O)[C@@H]1O	pEC50	5.05
Oc1ccc(C[C@H]2NCCc3cc(O)c(O)cc32)cc1 [(+)-HIGENAMINE]	pEC50	5.35
Oc1ccc(C[C@@H]2NCCc3cc(O)c(O)cc32)cc1 [(-)-HIGENAMINE]	pEC50	6.22

Moving on to another compound below.
Task item: Request the reported pEC50 associated with OC[C@H]1O[C@@H](Oc2ccc(C[C@@H]3NCCc4cc(O)c(O)cc43)cc2)[C@H](O)[C@@H](O)[C@@H]1O
Reply: 5.89
